# Assay Target: T1, Bdf1 bromodomain 2 (GST-tagged, WT) (Saccharomyces cerevisiae (strain ATCC …, UniProt P35817))
# T1 chain: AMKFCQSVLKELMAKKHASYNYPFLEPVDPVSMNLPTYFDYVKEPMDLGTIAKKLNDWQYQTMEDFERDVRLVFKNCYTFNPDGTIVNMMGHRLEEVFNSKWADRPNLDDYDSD
# Run Description: histone peptide array probed with recombinant GST-bromodomain, signal normalised to myc peptide control
Non-standard residues stand in square brackets, D forms with d. Primed or numbered codes have the meaning given here. No end group written: not given here. Me2a″ = asymmetric dimethylarginine (Rme2a); Arg(Me2a) = CN(C)C(=N)NCCC[C@H](N)C(=O)O; Lys(Me3) = C[N+](C)(C)CCCC[C@H](N)C(=O)O; Arg(Me2s) = CN=C(NC)NCCC[C@H](N)C(=O)O; pT = C[C@@H](OP(=O)(O)O)[C@H](N)C(=O)O; Lys(Me2) = CN(C)CCCC[C@H](N)C(=O)O; pS = N[C@@H](COP(=O)(O)O)C(=O)O; Lys(Me) = CNCCCC[C@H](N)C(=O)O; Me3″ = trimethyl lysine (Kme3)
Attribute Measured: binding score

Previously resolved entries follow.
PDPAKSAPAPKKGSK(Ac)KAVT :: 0
ARTKQTARKSTGGKAPRKQ (A R T K Q T A R Kac S T G G Kac A P R K Q) :: 0.209
ARTKQTARKSTGGKAPRKQ (A R T K Q T A R K pS T G G Kac A P R K Q) :: 0.115
A[Arg(Me2a)]T[Lys(Me2)]QTA[Arg(Me2a)][Lys(Me3)]STGGKAPRKQ :: 0

[a] SGRGKGGKGLGKGGAKRHR (S G Rme2a G K G G K G L G K G G A K R H R)
[b] [pS]GRGKQGGK(Ac)ARAKAKSRSS
[c] PRKQLATKAA[Arg(Me2a)]K[pS]APATGG
[d] PDPAK(Ac)SAPAPKK(Ac)GSKKAVT
[e] [pS]GRGKQGGKARAKAKSRSS
IN: Which order do these items take when sorted by rising binding score? List them. Write the labels, ordered according to the request.
OUT: c, a, e, b, d

[A] A[Arg(Me2a)][pT][Lys(Me2)]QTARKSTGGKAPRKQ
[B] ARTKQTARKSTGGKAPRKQ (A R T Kme1 Q T A Rme2a Kme2 S T G G K A P R K Q)
[C] PRKQLATKAAR(Me2a″)K(Me3″)[pS]APATGG
[D] A[Arg(Me2s)]TK(Ac)QTA[Arg(Me2a)][Lys(Me)]STGGKAPRKQ
[E] ARTKQTARKSTGGKAPRKQ (A R T Kme2 Q T A Rme2s Kac S T G G K A P R K Q)
IN: Sort these binders on binding score so the largest reading comes first. Please reply with the labels ordered as requested. Many thanks.
OUT: E, B, D, A, C

[A] A[Arg(Me2a)]TK(Me3)QTARKSTGGKAPRKQ
[B] ARTKQTARKSTGGKAPRKQ (A Rme2a T Kme2 Q T A Rme2a K S T G G K A P R K Q)
[C] ARTKQTARKSTGGKAPRKQ (A R T K Q T A R Kac pS T G G K A P R K Q)
IN: // ascending sort on recorded binding score Give the labels in the order specified.
OUT: C, A, B
